Tested on: Methicillin Resistant Staphylococcus aureus strain USA 300, NRS384
Test: Minimum inhibitory concentration, broth micro-dilution (CLSI), S. aureus
Assay type: cell-based
Settings: Staphylococcus aureus, MRSA / NRS 384 / USA300, 22 h, MRSA USA 300 NRS384; 35° C., 22 hours; read-out: MIC (μg/mL) S. aureus
Consider the following molecules; for each one, report its log10 MIC.
Quick note: numbers are log10 of MIC, with µg/mL as the unit.

Below, 5 molecules whose answers are already recorded.
CCCCc1ccc(C(=O)N[C@@H](CCO)C(=O)N(C)[C@@H]2C(=O)N[C@@H](C)C(=O)N[C@H](C(=O)NCC#N)Cc3ccc(OCCN)c(c3)-c3cc2ccc3OCCN)c(C)c1 [Compound 258] : 0.00
CCCCCCCCCCCCCC(=O)N[C@@H](CCN)C(=O)N(C)[C@@H]1C(=O)N[C@@H](C)C(=O)N[C@H](C(=O)NCC#N)Cc2ccc(OC)c(c2)-c2cc1ccc2OCCN [Compound 326] : -0.72
CCCCCCCCCCNCCC(=O)N(C)[C@@H]1C(=O)N[C@@H](C)C(=O)N[C@H](C(=O)NCC#N)Cc2ccc(OCCN)c(c2)-c2cc1ccc2OCCN [Compound 131] : -1.33
Cc1cc(OCC(C)C)ccc1C(=O)N[C@@H](CCN)C(=O)N(C)[C@@H]1C(=O)N[C@@H](C)C(=O)N[C@H](C(=O)NCC#N)Cc2ccc(OCCN)c(c2)-c2cc1ccc2OCCN [Compound 276] : -0.24
CCCCc1ccc(Oc2ncc(C(=O)N[C@@H](CCN)C(=O)N(C)[C@@H]3C(=O)N[C@@H](C)C(=O)N[C@H](C(=O)NCC#N)Cc4ccc(OCCN)c(c4)-c4cc3ccc4OCCN)c(C)n2)cc1 [Compound 306] : -1.51

Quick batch: log10 MIC for everything below.
1. CCCCC#CCOc1ccc(C(=O)N[C@@H](CCN)C(=O)N(C)[C@@H]2C(=O)N[C@@H](C)C(=O)N[C@H](C(=O)NCC#N)Cc3ccc(OCCN)c(c3)-c3cc2ccc3OCCN)c(Cl)c1 [Compound 283]
2. Cc1cc(-c2cnc(CC(C)C)cn2)ccc1C(=O)N[C@@H](CCN)C(=O)N(C)[C@@H]1C(=O)N[C@@H](C)C(=O)N[C@H](C(=O)NCC#N)Cc2ccc(OCCN)c(c2)-c2cc1ccc2OCCN [Compound 178]
3. Cc1cc(-c2ccc(CC(C)C)cn2)ccc1C(=O)N[C@@H](CCN)C(=O)N(C)[C@@H]1C(=O)N[C@@H](C)C(=O)N[C@H](C(=O)NCC#N)Cc2ccc(OCCN)c(c2)-c2cc1ccc2OCCN [Compound 173]
4. Cc1cc(-c2ccc(CC(C)C)cc2)cnc1C(=O)N[C@@H](CCN)C(=O)N(C)[C@@H]1C(=O)N[C@@H](C)C(=O)N[C@H](C(=O)NCC#N)Cc2ccc(OCCN)c(c2)-c2cc1ccc2OCCN [Compound 168]

1. -1.20
2. -0.60
3. -1.03
4. -1.20

Given the entry CCCCCCCCc1ccc(C(=O)N[C@@H](CCN)C(=O)N(C)[C@@H]2C(=O)N[C@@H](C)C(=O)N[C@H](C(=O)NCC#N)Cc3ccc(OCCN)c(c3)-c3cc2ccc3OCCN)c(OCC(=O)NCC#N)c1 [Compound 410] , report its measured log10 MIC.
-0.89

Origin of the recorded values: patent US20180327367A1
